# target.of.assay: Acetylcholinesterase (Homo sapiens, UniProt P22303)
# Sequence (P22303 32-614): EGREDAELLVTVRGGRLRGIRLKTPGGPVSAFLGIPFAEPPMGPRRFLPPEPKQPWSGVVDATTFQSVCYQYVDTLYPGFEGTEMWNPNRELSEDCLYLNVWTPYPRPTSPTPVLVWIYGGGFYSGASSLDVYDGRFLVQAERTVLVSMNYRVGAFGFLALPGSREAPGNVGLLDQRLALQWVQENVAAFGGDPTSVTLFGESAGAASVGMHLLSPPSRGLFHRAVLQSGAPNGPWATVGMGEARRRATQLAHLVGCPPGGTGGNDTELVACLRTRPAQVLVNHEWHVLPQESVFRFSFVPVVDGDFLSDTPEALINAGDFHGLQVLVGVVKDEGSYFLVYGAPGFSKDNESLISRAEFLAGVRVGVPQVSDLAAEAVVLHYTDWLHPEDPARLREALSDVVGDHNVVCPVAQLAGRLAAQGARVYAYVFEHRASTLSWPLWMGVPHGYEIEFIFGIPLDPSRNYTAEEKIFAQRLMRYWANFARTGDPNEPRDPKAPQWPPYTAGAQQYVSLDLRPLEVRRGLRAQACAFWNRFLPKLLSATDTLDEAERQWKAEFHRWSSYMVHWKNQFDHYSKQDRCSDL
# method.notes: biochemical
Threshold 3 µM. IC50 below it: Satisfied. IC50 at it or above: Not satisfied.

# compound, class.assignment
rows = [
    ("CCN(CC)c1nc(N(CC)CC)nc(N2CCC34C=C[C@H](O)CC3Oc3c(OC)ccc(c34)C2)n1 (mixture of isomers)", "Not satisfied"),
    ("C=CCN1CCC23C=C[C@H](O)CC2Oc2c(OC)ccc(c23)C1 (mixture of isomers)", "Not satisfied"),
    ("C=CC[N+]1(C)CCC23C=C[C@@H](O)CC2Oc2c(OC)cc(C)c(c23)C1 (mixture of isomers)", "Not satisfied"),
    ("COc1cc2c(cc1OC)C(=O)C(CCCCCN1CC[C@@]34C=C[C@H](O)C[C@@H]3Oc3c(OC)ccc(c34)C1)C2 (some centres unmarked) [Nr 166]", "Satisfied"),
    ("COc1ccc2c3c1OC1C[C@@H](O)C=CC31CCN(C(=O)Nc1ccc(Cl)cc1)C2 (mixture of isomers)", "Not satisfied"),
    ("COc1ccc2c3c1O[C@H]1C[C@@H](O)C=C[C@@]31CC[N+](C)(CCCN1CCCCC1)C2 (some centres unmarked)", "Not satisfied"),
    ("COc1ccc2c3c1O[C@H]1C[C@@H](O)C=C[C@@]31CCN(C)C2C#N (some centres unmarked)", "Satisfied"),
    ("COc1ccc2c3c1O[C@H]1C[C@@H](O)C=C[C@@]31CCN(C(=O)Oc1ccccc1)C2", "Not satisfied"),
]

###

Below are IC50 values measured for Butyrylcholinesterase (Homo sapiens, UniProt P06276).

# molecule, target.of.assay, cmp, IC50, µM
rows = [
    ("COc1ccc2c3c1OC1C[C@@H](O)C=CC31CCN(CC#N)C2 (mixture of isomers) [Nr 37]", "Butyrylcholinesterase (Homo sapiens, UniProt P06276)", ">", 100),
    ("COc1ccc2c3c1OC1C[C@@H](O)C=CC31CCN(C(=O)Nc1ccc(Cl)cc1)C2 (mixture of isomers) [Nr 92]", "Butyrylcholinesterase (Homo sapiens, UniProt P06276)", ">", 100),
    ("COc1ccc2c3c1OC1C[C@@H](O)C=CC31CCN(C(=O)Nc1ccc3ccccc3c1)C2 (mixture of isomers) [Nr 88]", "Butyrylcholinesterase (Homo sapiens, UniProt P06276)", ">", 100),
    ("COc1ccc2c3c1OC1C[C@@H](O)C=CC31CCN(CCCN1CC3CC1CN3c1ccccc1)C2 (mixture of isomers) [Nr 60]", "Butyrylcholinesterase (Homo sapiens, UniProt P06276)", "=", 7.5),
    ("COc1cc(C)c2c3c1OC1C[C@@H](O)C=CC31CC[N+](C)(C)C2 (mixture of isomers) [Nr 107]", "Butyrylcholinesterase (Homo sapiens, UniProt P06276)", "=", 14),
    ("COc1ccc2c3c1O[C@H]1C[C@@H](O)C=C[C@@]31CCN(CN(NC(=O)OC(C)(C)C)C(=O)OC(C)(C)C)C2 [Nr 160]", "Butyrylcholinesterase (Homo sapiens, UniProt P06276)", "=", 20),
    ("COc1ccc2c3c1OC1C[C@@H](O)C=CC31CCN(C=C(C#N)C#N)C2 (mixture of isomers) [Nr 80]", "Butyrylcholinesterase (Homo sapiens, UniProt P06276)", ">", 100),
    ("CCCN1CC[C@@]23C=C[C@H](O)C[C@@H]2Oc2c(OC)ccc(c23)C1 [Nr 155]", "Butyrylcholinesterase (Homo sapiens, UniProt P06276)", "=", 1.5),
]

###

# target.of.assay: Acetylcholinesterase (Homo sapiens)
# method.notes: biochemical
parameter.measured: IC50 (µM)

# compound, cmp, meas.value
records = [
    ("COc1ccc2c3c1O[C@H]1C[C@@H](O)C=C[C@@]31CCN(CC#N)C2", "=", 15),
    ("CCOC(=O)CN1CCC23C=C[C@H](O)CC2Oc2c(OC)cc(Br)c(c23)C1 (mixture of isomers)", "=", 20),
    ("CCCCNC(=O)O[C@H]1C=C[C@@]23CCN(C)Cc4ccc(OC)c(c42)O[C@H]3C1", ">", 100),
    ("COc1cc(Br)c2c3c1OC1C[C@@H](O)C=CC31CCN(CC#N)C2 (mixture of isomers)", ">", 100),
    ("CCCCCCN1CCC23C=C[C@H](O)CC2Oc2c(OC)cc(Br)c(c23)C1 (mixture of isomers)", "=", 40),
    ("COc1ccc2c3c1OC1C[C@@H](O)C=CC31CCN(C(=O)NC(C)C)C2 (mixture of isomers)", "=", 4.2),
    ("COc1ccc2c3c1OC1C[C@@H](O)C=CC31CCN(CCO)C2 (mixture of isomers)", "=", 14),
    ("COc1ccc2c3c1OC1C/C(=N/N)C=CC31CCN(C)C2 (racemic)", "=", 40),
]

###

# target.of.assay: Butyrylcholinesterase (Homo sapiens, UniProt P06276)
# Sequence (P06276 29-602): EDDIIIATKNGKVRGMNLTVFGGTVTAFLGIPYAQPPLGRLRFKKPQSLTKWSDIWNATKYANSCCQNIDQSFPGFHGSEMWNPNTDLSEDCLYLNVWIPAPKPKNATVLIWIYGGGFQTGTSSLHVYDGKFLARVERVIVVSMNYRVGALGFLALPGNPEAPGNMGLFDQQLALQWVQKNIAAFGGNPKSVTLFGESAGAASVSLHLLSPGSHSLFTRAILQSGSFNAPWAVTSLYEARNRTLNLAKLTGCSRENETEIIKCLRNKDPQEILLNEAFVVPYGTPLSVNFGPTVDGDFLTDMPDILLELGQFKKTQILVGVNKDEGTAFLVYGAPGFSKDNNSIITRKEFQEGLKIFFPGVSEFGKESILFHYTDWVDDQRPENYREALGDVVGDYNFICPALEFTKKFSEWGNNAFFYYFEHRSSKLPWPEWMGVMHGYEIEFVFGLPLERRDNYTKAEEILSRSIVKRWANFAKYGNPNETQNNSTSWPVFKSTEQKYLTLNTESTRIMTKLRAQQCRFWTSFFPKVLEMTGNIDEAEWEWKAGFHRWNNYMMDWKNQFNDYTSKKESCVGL

# compound, cmp, IC50, µM
data = [
    ("COc1ccc2c3c1O[C@H]1C[C@@H](O)C=C[C@@]31CCN(C(=O)Nc1cccc3ccccc13)C2 [Nr 267]", ">", 100),
    ("COc1ccc2c3c1O[C@H]1C[C@@H](O)C=C[C@@]31CCN(CCCCN1C(=O)c3ccccc3S1(=O)=O)C2 [Nr 161]", "=", 1.5),
    ("COc1ccc2c3c1O[C@H]1C[C@@H](O)C=C[C@@]31CCN(C(=O)NC(C)C)C2 [Nr 114]", "=", 10),
    ("COc1ccc2c3c1OC1C[C@@H](O)C=CC31CCN(CCO)C2 (mixture of isomers) [Nr 34]", "=", 26),
]

###

# pIC50 annotations
# target.of.assay: Acetylcholinesterase (Homo sapiens)
# method.notes: biochemical
pIC50: −log10 of the molar value.

# molecule, cmp, pIC50
rows = [
    ("COc1ccc2c3c1O[C@H]1C[C@@H](O)C=C[C@@]31CCN(c1ccccc1)C2 [Nr 123]", "=", 6.30),
    ("COc1cc(Br)c2c3c1OC1CC(=O)C=CC31CCN(C)C2 (racemic) [Nr 11]", "=", 4.30),
    ("CNC(=S)N1CCC23C=C[C@H](O)CC2Oc2c(OC)ccc(c23)C1 (mixture of isomers) [Nr 73]", "=", 4.64),
    ("COc1ccc2c3c1O[C@H]1C[C@@H](O)C=C[C@@]31CCN(CC(=O)N1CC3CC1CN3c1ccccc1)C2 (some centres unmarked) [Nr 143]", "=", 5.08),
    ("CCOC(=O)/C=C/N1CCC23C=C[C@H](O)CC2Oc2c(OC)ccc(c23)C1 (mixture of isomers) [Nr 110]", "=", 4.30),
    ("COc1ccc2c3c1O[C@H]1C[C@@H](O)C=C[C@@]31CCN(CC1CC1)C2 [Nr 131]", "=", 6.15),
    ("COc1ccc2c3c1OC1C[C@@H](O)C=CC31CCN(CC#N)C2 (mixture of isomers) [Nr 37]", "=", 4.52),
    ("COc1ccc2c3c1O[C@H]1C[C@@H](O)C=C[C@@]31CCN(C(=O)OCC1c3ccccc3-c3ccccc31)C2 [Nr 134]", "=", 4.40),
    ("COc1ccc2c3c1OC1C[C@@H](O)C=CC31CCC(N)C2 (mixture of isomers) [Nr 140]", "=", 5.28),
    ("COc1cc(C)c2c3c1OC1C[C@@H](O)C=CC31CCN(CCCN1CCCCC1)C2 (mixture of isomers) [Nr 64]", "=", 4.34),
    ("COc1ccc2c3c1OC1C[C@@H](O)C=CC31CCN(C(=O)N[C@H](C)c1ccccc1)C2 (mixture of isomers) [Nr 112]", "=", 4.52),
    ("COc1ccc2c3c1OC1C[C@@H](O)C=CC31CCN(C=C(C#N)C#N)C2 (mixture of isomers) [Nr 80]", "=", 4.55),
    ("COc1ccc2c3c1O[C@H]1C[C@@H](O)C=C[C@@]31CCN(CCCCCCN1C(=O)c3ccccc3S1(=O)=O)C2 [Nr 164]", "=", 7.37),
    ("CCOC(=O)CCN1CCC23C=C[C@H](O)CC2Oc2c(OC)cc(Br)c(c23)C1 (mixture of isomers) [Nr 55]", "<", 4.00),
    ("COc1ccc2c3c1O[C@H]1C[C@@H](O)C=C[C@@]31CCN(C(=O)Nc1ccccc1C(F)(F)F)C2 [Nr 111]", "=", 4.52),
    ("COc1cc(Br)c2c3c1O[C@H]1C[C@@H](O)C=C[C@@]31CCNC2 [Nr 29]", "=", 5.52),
    ("COc1cc(C)c2c3c1O[C@H]1C[C@@H](O)C=C[C@@]31CCN(C)C2C (some centres unmarked) [Nr 146]", "=", 4.08),
    ("COc1cc(Br)c2c3c1OC1C[C@@H](O)C=CC31CCN(CC(N)=O)C2 (mixture of isomers) [Nr 27]", "<", 4.00),
    ("COc1cc(Br)c2c(c1O)C13CCC(O)CC1N(CC3)C2 (racemic) [Nr 205]", "=", 4.30),
    ("COc1ccc2c3c1OC1C/C(=N/N(C)C)C=CC31CCN(C)C2 (racemic) [Nr 24]", "=", 4.10),
    ("COc1ccc2c(c1)CC(CCCCN1CC[C@@]34C=C[C@H](O)C[C@@H]3Oc3c(OC)ccc(c34)C1)C2=O (some centres unmarked) [Nr 168]", "=", 7.62),
    ("COc1ccc2c3c1O[C@H]1C[C@@H](OC(=S)Nc4ccccc4)C=C[C@@]31CCN(C)C2 [Nr 179]", "=", 4.29),
    ("COc1cc(Br)c2c(c1O)C13C=C[C@@H](O)CC1N(CC3)C2 (mixture of isomers) [Nr 14]", "<", 4.00),
    ("COc1cc(Br)c2c(c1O)C13C=CC(=O)CC1N(CC3)C2 (racemic) [Nr 13]", "=", 5.30),
    ("COc1ccc2c3c1O[C@H]1C[C@@H](O)C=C[C@@]31CCN(CCC(=O)O)C2 [Nr 120]", "=", 4.38),
    ("COc1ccc2c3c1O[C@H]1C[C@@H](O)C=C[C@@]31CCN(C1CCN(C(=O)c3ccccc3)CC1)C2 [Nr 148]", "=", 4.62),
    ("C=C(C)C[N+]1(C)CCC23C=C[C@@H](O)CC2Oc2c(OC)cc(C)c(c23)C1 (mixture of isomers) [Nr 102]", "<", 4.00),
    ("CCOC(=O)NN(CN1CC[C@@]23C=C[C@H](O)C[C@@H]2Oc2c(OC)ccc(c23)C1)C(=O)OCC [Nr 159]", "=", 5.52),
    ("COc1ccc2c3c1OC1C[C@@H](O)C=CC31CCN(CCC(=O)NC(C)(C)C)C2 (mixture of isomers) [Nr 101]", "=", 4.35),
    ("COc1ccc2c3c1O[C@H]1C[C@@H](O)C=C[C@@]31CCN(C(=O)Nc1cccc3ccccc13)C2 [Nr 267]", "=", 4.15),
    ("COc1cc(C)c2c3c1OC1C[C@@H](O)C=CC31CCN(C)C2C#N (mixture of isomers) [Nr 145]", "=", 4.10),
    ("COc1ccc2c3c1O[C@H]1C[C@H](OC(=O)CNC(=O)OC(C)(C)C)C=C[C@@]31CCN(C)C2 [Nr 6]", "=", 4.35),
]
